Measured IC50 of individual entries
- Subject Of Test: Melanocortin receptor 4 (Homo sapiens, UniProt P32245)
- Sequence (P32245 whole entry): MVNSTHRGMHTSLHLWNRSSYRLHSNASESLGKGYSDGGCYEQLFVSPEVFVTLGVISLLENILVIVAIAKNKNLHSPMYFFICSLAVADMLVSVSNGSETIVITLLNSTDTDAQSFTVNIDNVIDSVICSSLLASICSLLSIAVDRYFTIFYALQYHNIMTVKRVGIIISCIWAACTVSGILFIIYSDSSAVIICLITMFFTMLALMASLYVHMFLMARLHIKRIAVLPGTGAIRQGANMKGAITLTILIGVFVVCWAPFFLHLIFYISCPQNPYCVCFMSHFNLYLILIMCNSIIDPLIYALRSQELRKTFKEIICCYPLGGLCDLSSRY
- Experimental Protocol: Displacement of [125I]NDPalphaMSH from human cloned MC4R expressed in CHO cells
- Format: cell-based

CCCC[C@H](NC(C)=O)C(=O)N[C@H]1CC(=O)NCCCC[C@@H](C(N)=O)NC(=O)[C@H](Cc2c[nH]c3ccccc23)NC(=O)[C@@H]2CCCN2C(=O)[C@@H](CCC(N)=O)NC(=O)[C@H](Cc2c[nH]cn2)NC1=O    > 10 µM

*Q* Consider the compound shown here: `CCCC[C@H](NC(C)=O)C(=O)N[C@H]1CC(=O)NCCCC[C@@H](C(N)=O)NC(=O)[C@H](Cc2c[nH]c3ccccc23)NC(=O)[C@@H]2CCCN2C(=O)[C@@H](Cc2ccc(Cl)cc2)NC(=O)[C@H](Cc2c[nH]cn2)NC1=O` What is its recorded IC50?
*A* 4.5 µM (antagonist)

* * *

- Species: Homo sapiens
- Experimental Protocol: Selectivity for human cloned MC5R over human cloned MC1bR
Starred links: 1 amine or outer side, 2 acyl side, 3 side chain; linkers in the order of their positions; H or OH if unused. Positions of bridges follow the written chain, without caps; N, C: chain ends. Non-standard residues stand in square brackets, D forms with d. Residues, ends and D or L forms follow the SMILES beside them. X4 = O=C([C@H](CC1CCC(C2CCCCC2)CC1)N[*:1])[*:2]; X3 = O=C([C@H]1CC2CCCCC2N1[*:1])[*:2]; Pip = O=C(O)[C@@H]1CCCCN1; Nle = CCCC[C@H](N)C(=O)O
Assay Metric: Ratio IC50

Here are 3 compounds together with their reported answers.
CCCC[C@H](NC(C)=O)C(=O)N[C@H]1CC(=O)NCCCC[C@@H](C(N)=O)NC(=O)[C@H](Cc2c[nH]c3ccccc23)NC(=O)[C@@H]2CCCCN2C(=O)[C@H](Cc2ccc(-c3ccccc3)cc2)NC(=O)[C@@H]2Cc3ccccc3CN2C1=O    260
CCCC[C@H](NC(C)=O)C(=O)N[C@H]1CC(=O)NCCCC[C@@H](C(N)=O)NC(=O)[C@H](Cc2c[nH]c3ccccc23)NC(=O)[C@@H]2CCCN2C(=O)[C@H](Cc2ccc(-c3ccccc3)cc2)NC(=O)[C@@H]2CC3CCCCC3N2C1=O (stereo partly drawn)    780
CCCC[C@H](NC(C)=O)C(=O)N[C@H]1CC(=O)NCCCC[C@@H](C(N)=O)NC(=O)[C@H](Cc2c[nH]c3ccccc23)NC(=O)[C@@H]2CCCCN2C(=O)[C@H](CC2CCC(C3CCCCC3)CC2)NC(=O)[C@H]2CC3CCCCC3N2C1=O (stereo partly drawn) (Ac-[Nle]D[X3][X4][Pip]WK-NH2; lactam 2-7)    1.8

1 = CCCC[C@H](NC(C)=O)C(=O)N[C@H]1CC(=O)NCCCC[C@@H](C(N)=O)NC(=O)[C@H](Cc2c[nH]c3ccccc23)NC(=O)[C@@H]2CCCCN2C(=O)[C@H](Cc2ccc(-c3ccccc3)cc2)NC(=O)[C@H](C(C)C)NC1=O
2 = CCCC[C@H](NC(C)=O)C(=O)N[C@H]1CC(=O)NCCCC[C@@H](C(N)=O)NC(=O)[C@H](Cc2c[nH]c3ccccc23)NC(=O)[C@@H]2CCCCN2C(=O)[C@H](Cc2ccc(-c3ccccc3)cc2)NC(=O)[C@@H]2CCCN2C1=O
3 = CCCC[C@H](NC(C)=O)C(=O)N[C@H]1CC(=O)NCCCC[C@@H](C(N)=O)NC(=O)[C@H](Cc2c[nH]c3ccccc23)NC(=O)[C@@H]2CCCCN2C(=O)[C@H](Cc2ccc(-c3ccccc3)cc2)NC(=O)[C@H](Cc2c[nH]cn2)NC1=O
*Q* // ascending sort on recorded Ratio IC50 Give me the labels in the order the question wants.
*A* 3, 2, 1
(3: 8, 2: 430, 1: 670)

* * *

Measured IC50 of individual entries
- Subject Of Test: UniProt:P33032
- Sequence (P33032 whole entry): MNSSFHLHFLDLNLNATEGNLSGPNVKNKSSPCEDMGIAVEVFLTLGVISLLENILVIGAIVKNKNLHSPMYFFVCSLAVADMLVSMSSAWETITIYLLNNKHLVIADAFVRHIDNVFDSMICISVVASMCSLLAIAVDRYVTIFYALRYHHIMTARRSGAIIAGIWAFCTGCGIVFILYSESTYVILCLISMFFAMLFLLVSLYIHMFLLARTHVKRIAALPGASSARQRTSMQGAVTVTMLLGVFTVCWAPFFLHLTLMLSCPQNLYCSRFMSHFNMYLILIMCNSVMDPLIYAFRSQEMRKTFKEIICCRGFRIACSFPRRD
- Experimental Protocol: Displacement of [125I]NDPalphaMSH from human cloned MC5R expressed in CHO cells
- Format: cell-based
Starred links: 1 amine or outer side, 2 acyl side, 3 side chain; linkers in the order of their positions; H or OH if unused. Positions of bridges follow the written chain, without caps; N, C: chain ends. Non-standard residues stand in square brackets, D forms with d. Residues, ends and D or L forms follow the SMILES beside them. ξ: configuration not given here. X2 = O=C([C@@H](Cc1ccc(Cc2ccccc2)cc1)N[*:1])[*:2]; Oic(3aξ,7aξ) = O=C(O)[C@@H]1CC2CCCCC2N1; Pip = O=C(O)[C@@H]1CCCCN1; Nle = CCCC[C@H](N)C(=O)O

CCCC[C@H](NC(C)=O)C(=O)N[C@H]1CC(=O)NCCCC[C@@H](C(N)=O)NC(=O)[C@H](Cc2c[nH]c3ccccc23)NC(=O)[C@@H]2CCCCN2C(=O)[C@@H](Cc2ccc(-c3ccccc3)cc2)NC(=O)[C@@H]2CCCN2C1=O    0.00015 µM (antagonist)
CCCC[C@H](NC(C)=O)C(=O)N[C@H]1CC(=O)NCCCC[C@@H](C(N)=O)NC(=O)[C@H](Cc2c[nH]c3ccccc23)NC(=O)[C@@H]2CCCCN2C(=O)[C@@H](Cc2ccc(-c3ccccc3)cc2)NC(=O)[C@H](C2CCCCC2)NC1=O    0.05 µM (antagonist)
CCCC[C@H](NC(C)=O)C(=O)N[C@H]1CC(=O)NCCCC[C@@H](C(N)=O)NC(=O)[C@H](Cc2c[nH]c3ccccc23)NC(=O)[C@@H]2CCCN2C(=O)[C@@H](Cc2ccc(-c3ccccc3)cc2)NC(=O)[C@@H]2CC3CCCCC3N2C1=O (stereo partly drawn)    0.01 µM (antagonist)
CCCC[C@H](NC(C)=O)C(=O)N[C@H]1CC(=O)NCCCC[C@@H](C(N)=O)NC(=O)[C@H](Cc2c[nH]c3ccccc23)NC(=O)[C@@H]2CCCN2C(=O)[C@@H](CCC(N)=O)NC(=O)[C@H](Cc2c[nH]cn2)NC1=O    > 10 µM
CCCC[C@H](NC(C)=O)C(=O)N[C@H]1CC(=O)NCCCC[C@@H](C(N)=O)NC(=O)[C@H](Cc2c[nH]c3ccccc23)NC(=O)[C@@H]2CCCCN2C(=O)[C@@H](Cc2ccc(Cc3ccccc3)cc2)NC(=O)[C@@H]2CC3CCCCC3N2C1=O (stereo partly drawn) (Ac-[Nle]D[Oic(3aξ,7aξ)][X2][Pip]WK-NH2; lactam 2-7)    0.024 µM (antagonist)
CCCC[C@H](NC(C)=O)C(=O)N[C@H]1CC(=O)NCCCC[C@@H](C(N)=O)NC(=O)[C@H](Cc2c[nH]c3ccccc23)NC(=O)[C@@H]2CCCN2C(=O)[C@@H](CCCCN)NC(=O)[C@H](Cc2cnc[nH]2)NC1=O    > 10 µM
CCCC[C@H](NC(C)=O)C(=O)N[C@H]1CC(=O)NCCCC[C@@H](C(N)=O)NC(=O)[C@H](Cc2c[nH]c3ccccc23)NC(=O)[C@@H]2CCCN2C(=O)[C@@H](Cc2ccc([N+](=O)[O-])cc2)NC(=O)[C@H](Cc2cnc[nH]2)NC1=O    0.78 µM (antagonist)

Continue with the compound presented below.
*Q* Consider the compound shown here: CCCC[C@H](NC(C)=O)C(=O)N[C@H]1CC(=O)NCCCC[C@@H](C(N)=O)NC(=O)[C@H](Cc2c[nH]c3ccccc23)NC(=O)[C@@H]2CCCCN2C(=O)[C@@H](Cc2ccc(-c3ccccc3)cc2)NC(=O)[C@@H]2CC3CCCCC3N2C1=O (stereo partly drawn) What is its recorded IC50?
*A* 0.00095 µM (antagonist)

* * *

- Subject Of Test: Melanocyte-stimulating hormone receptor (Homo sapiens, UniProt Q01726)
- Sequence (Q01726 whole entry): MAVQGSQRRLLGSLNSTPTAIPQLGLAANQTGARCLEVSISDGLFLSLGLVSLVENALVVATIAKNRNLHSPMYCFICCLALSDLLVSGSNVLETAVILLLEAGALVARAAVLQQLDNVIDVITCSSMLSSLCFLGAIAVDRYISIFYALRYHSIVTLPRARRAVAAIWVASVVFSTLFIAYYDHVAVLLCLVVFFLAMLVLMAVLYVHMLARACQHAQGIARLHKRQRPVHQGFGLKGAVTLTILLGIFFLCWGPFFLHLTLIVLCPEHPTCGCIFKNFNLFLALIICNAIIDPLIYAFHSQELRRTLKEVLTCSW
- Experimental Protocol: Displacement of [125I]NDPalphaMSH from human cloned melanocortin receptor 1b expressed in CHO cells
- Format: cell-based
Measured IC50 of individual entries

CCCC[C@H](NC(C)=O)C(=O)N[C@H]1CC(=O)NCCCC[C@@H](C(N)=O)NC(=O)[C@H](Cc2c[nH]c3ccccc23)NC(=O)[C@@H]2CCCCN2C(=O)[C@@H](Cc2ccc(-c3ccccc3)cc2)NC(=O)[C@H](c2ccccc2)NC1=O    > 1000 nM
CCCC[C@H](NC(C)=O)C(=O)N[C@H]1CC(=O)NCCCC[C@@H](C(N)=O)NC(=O)[C@H](Cc2c[nH]c3ccccc23)NC(=O)[C@@H]2CCCN2C(=O)[C@@H](Cc2ccccc2)NC(=O)[C@H](Cc2cnc[nH]2)NC1=O    2500 nM (antagonist)
CCCC[C@H](NC(C)=O)C(=O)N[C@H]1CC(=O)NCCCC[C@@H](C(N)=O)NC(=O)[C@H](Cc2c[nH]c3ccccc23)NC(=O)[C@@H]2CCCN2C(=O)[C@@H](Cc2ccc([N+](=O)[O-])cc2)NC(=O)[C@H](Cc2cnc[nH]2)NC1=O    > 2000 nM
CCCC[C@H](NC(C)=O)C(=O)N[C@H]1CC(=O)NCCCC[C@@H](C(N)=O)NC(=O)[C@H](Cc2c[nH]c3ccccc23)NC(=O)[C@@H]2CCCN2C(=O)[C@@H](CC2CCCCC2)NC(=O)[C@H](Cc2c[nH]cn2)NC1=O    > 10000 nM
CCCC[C@H](NC(C)=O)C(=O)N[C@H]1CC(=O)NCCCC[C@@H](C(N)=O)NC(=O)[C@H](Cc2c[nH]c3ccccc23)NC(=O)[C@@H]2CCCN2C(=O)[C@@H](Cc2ccc3ccccc3c2)NC(=O)[C@H](Cc2cnc[nH]2)NC1=O    880 nM (antagonist)
CCCC[C@H](NC(C)=O)C(=O)N[C@H]1CC(=O)NCCCC[C@@H](C(N)=O)NC(=O)[C@H](Cc2c[nH]c3ccccc23)NC(=O)[C@@H]2CCCN2C(=O)[C@H](Cc2ccc(OC)cc2)NC(=O)[C@H](Cc2cnc[nH]2)NC1=O    > 2000 nM

*Q* # value lookup — system Melanocyte-stimulating hormone receptor (Homo sapiens, UniProt Q01726), readout IC50, item CCCC[C@H](NC(C)=O)C(=O)N[C@H]1CC(=O)NCCCC[C@@H](C(N)=O)NC(=O)[C@H](Cc2c[nH]c3ccccc23)NC(=O)[C@@H]2CCCCN2C(=O)[C@@H](Cc2ccc(-c3ccccc3)cc2)NC(=O)[C@@H]2CC3CCCCC3N2C1=O (some centres undefined)
*A* > 5000 nM

*Q* Subsequent entry: `CCCC[C@H](NC(C)=O)C(=O)N[C@H]1CC(=O)NCCCC[C@@H](C(N)=O)NC(=O)[C@H](Cc2c[nH]c3ccccc23)NC(=O)[C@@H]2CCCCN2C(=O)[C@@H](Cc2ccc(-c3ccccc3)cc2)NC(=O)[C@@H]2CCCN2C1=O`
*A* 65 nM (antagonist)

*Q* Subsequent entry: `CCCC[C@H](NC(C)=O)C(=O)N[C@H]1CC(=O)NCCCC[C@@H](C(N)=O)NC(=O)[C@H](Cc2c[nH]c3ccccc23)NC(=O)[C@@H]2CCCN2C(=O)[C@H](Cc2ccccc2)NC(=O)[C@H](Cc2cnc[nH]2)NC1=O`
*A* 980 nM (antagonist)
